Answer each item with its documented pest or weed control at 31 g/ha.
tested on: giant foxtail (Setaria faberii); experiment: Test C postemergence; type: in vivo; settings: Setaria faberi, post-emergence, 336 h; Postemergence, 31 g ai/ha, scale 0 to 100; read-out: Plant response rating, Foxtail, Giant
Give bare numbers, in %.

Fill in pest or weed control at 31 g/ha for each of the 5 compounds listed.
1. Fc1cccc(Oc2ncc(Cl)cn2)c1Oc1ncc(Br)cn1
2. N#Cc1cccc(Oc2ncc(Cl)cn2)c1Oc1ncc(Br)cn1
3. Fc1cnc(Oc2c(F)cccc2Oc2ncc(Cl)cn2)nc1
4. N#Cc1cccc(Oc2ncc(C(F)(F)F)cn2)c1Oc1ncc(Cl)cn1
5. Fc1cnc(Oc2c(Br)cccc2Oc2ncc(Cl)cn2)nc1

1: 0; 2: 40; 3: 0; 4: 10; 5: 5

====

For each record, write down the corresponding pest or weed control at 31 g/ha.
test system: barnyardgrass (Echinochloa crus-galli); assay: Test A preemergence; type: in vivo; settings: Echinochloa crus-galli, pre-emergence, 240 h, 31 g ai/ha, 0 to 100 scale (0 no effect, 100 complete control), read-out: Barnyardgrass plant response rating
Numbers only, in %.

Some entries whose results are on file:
{"molecule": "N#Cc1cccc(Oc2ncc(Br)cn2)c1Oc1ncc(Cl)cn1 [Compound 5]", "measured quantity": "pest or weed control at 31 g/ha", "data value": 20}
{"molecule": "N#Cc1cccc(Oc2ncc(Br)cn2)c1Oc1ccc(Cl)cn1 [Compound 11]", "measured quantity": "pest or weed control at 31 g/ha", "data value": 0}
{"molecule": "FC(F)c1cnc(Oc2c(Br)cccc2Oc2ncc(Cl)cn2)s1 [Compound 10]", "measured quantity": "pest or weed control at 31 g/ha", "data value": 0}
{"molecule": "N#Cc1cccc(Oc2ncc(Cl)cn2)c1Oc1ccc(Cl)cc1 [Compound 36]", "measured quantity": "pest or weed control at 31 g/ha", "data value": 0}
{"molecule": "N#Cc1cccc(Oc2ncc(F)cn2)c1Oc1ccc(Br)cn1 [Compound 9]", "measured quantity": "pest or weed control at 31 g/ha", "data value": 30}

For every record below, what is its pest or weed control at 31 g/ha?
1. N#Cc1cccc(Oc2ncc(Cl)cn2)c1Oc1cccnc1 [Compound 8]
2. N#Cc1cccc(Oc2ncc(C(F)(F)F)cn2)c1Oc1ncc(Cl)cn1 [Compound 39]

0
80

====

system: galium (catchweed bedstraw, Galium aparine); test: Test A postemergence; assay type: in vivo; conditions: Galium, post-emergence, 240 h, 125 g ai/ha, 0 to 100 scale, read-out: Plant response rating, Galium
Excerpt: […]
measured quantity: pest or weed control at 125 g/ha (%)
Give bare numbers, in %.

Give measured pest or weed control at 125 g/ha for every item shown.
1. N#Cc1cccc(Oc2ncc(Br)cn2)c1Oc1ncc(Cl)cn1 [Compound 5]
2. N#Cc1cccc(Oc2ncc(C(F)(F)F)cn2)c1Oc1ncc(Cl)cn1 [Compound 39]

1. 90
2. 100

For each of the molecules below, state pest or weed control at 125 g/ha.
1. FCc1cccc(Oc2ncc(Cl)cn2)c1Oc1ncc(Cl)cn1 [Compound 44]
2. Fc1ccc(F)c(Oc2ncc(Br)cn2)c1Oc1ncc(Br)cn1 [Compound 31]
3. N#Cc1cccc(Oc2ncc(Cl)cn2)c1Oc1cccc(Cl)c1 [Compound 37]
4. N#Cc1cccc(Oc2ncc(Br)cn2)c1Oc1cccnc1 [Compound 7]
5. FC(F)c1cnc(Oc2c(Br)cccc2Oc2ncc(Cl)cn2)s1 [Compound 10]
6. N#Cc1cccc(Oc2ncc(F)cn2)c1Oc1ccc(Br)cn1 [Compound 9]
7. N#Cc1cccc(Oc2ncc(Br)cn2)c1Oc1ccc(Br)cn1 [Compound 12]

[80, 100, 0, 10, 100, 100, 50]

# return pest or weed control at 125 g/ha for each item in the list
1. N#Cc1cccc(Oc2ncc(Br)cn2)c1Oc1ccc(Cl)cn1 [Compound 11]
2. FC(F)c1cccc(Oc2ncc(Br)cn2)c1Oc1ncc(Cl)cn1 [Compound 41]

1: 100; 2: 80

====

system: wild radish (Raphanus raphanistrum); assay: Test D postemergence; format: in vivo; conditions: 16 g ai/ha, scale 0 to 100
measured quantity: Plant response rating, Radish, Wild
Numbers only.

Can you give me Plant response rating, Radish, Wild for all of these, one by one?
1. Fc1cccc(Oc2ncc(C(F)(F)F)cn2)c1Oc1ncc(Cl)cn1 [Compound 42]
2. Fc1cnc(Oc2c(Br)cccc2Oc2ncc(Cl)cn2)nc1 [Compound 22]
3. Fc1cnc(Oc2c(F)cccc2Oc2ncc(Cl)cn2)nc1 [Compound 23]
4. FC(F)(F)c1cnc(Oc2c(Br)cccc2Oc2ncc(Cl)cn2)nc1 [Compound 24]

1. 80
2. 25
3. 25
4. 75

====

system: corn (Zea mays); experiment: Test C postemergence; format: in vivo; conditions: Zea mays, post-emergence, 336 h; Postemergence, 62 g ai/ha, scale 0 to 100
measured quantity: Corn plant response rating (crop injury, 0 = no effect, 100 = complete kill) at 62 g/ha (%)
Answers are plain numbers, in %.

{"test smiles": "Fc1cnc(Oc2c(Br)cccc2Oc2ncc(Cl)cn2)nc1", "data value": 10}
{"test smiles": "Fc1cccc(Oc2ncc(Cl)cn2)c1Oc1ncc(Br)cn1", "data value": 15}
{"test smiles": "Fc1cccc(Oc2ncc(Cl)cn2)c1Oc1ncc(C(F)(F)F)cn1", "data value": 5}
{"test smiles": "Fc1cccc(Oc2ncc(Cl)cn2)c1Oc1ccc(Cl)nc1", "data value": 15}
{"test smiles": "FC(F)c1cccc(Oc2ncc(Cl)cn2)c1Oc1ncc(Cl)cn1", "data value": 5}

Please give the measured Corn plant response rating (crop injury, 0 = no effect, 100 = complete kill) at 62 g/ha for this compound: Fc1cccc(Oc2ncc(Cl)cn2)c1Oc1ncc(Cl)cn1
5

====

tested on: barnyardgrass (Echinochloa crus-galli); experiment: Test A preemergence; type: in vivo; conditions: Echinochloa crus-galli, pre-emergence, 240 h, 500 g ai/ha, 0 to 100 scale, read-out: Plant response rating, Barnyardgrass
Give measured pest or weed control at 500 g/ha for each item. Keep answers brief.
Answers are plain numbers, in %.

{"compound": "Fc1cccc(Oc2ncc(Cl)cn2)c1Oc1ncc(C(F)(F)F)cn1 [Compound 43]", "measured quantity": "pest or weed control at 500 g/ha", "unit string": "%", "data value": 100}
{"compound": "N#Cc1cccc(Oc2ncc(Cl)cn2)c1Oc1ncc(Br)cn1 [Compound 4]", "measured quantity": "pest or weed control at 500 g/ha", "unit string": "%", "data value": 100}
{"compound": "N#Cc1cccc(Oc2ncc(F)cn2)c1Oc1ncc(F)cn1 [Compound 2]", "measured quantity": "pest or weed control at 500 g/ha", "unit string": "%", "data value": 100}
{"compound": "Fc1cccc(Oc2ncc(Cl)cn2)c1Oc1ncc(Cl)cn1 [Compound 21]", "measured quantity": "pest or weed control at 500 g/ha", "unit string": "%", "data value": 100}

Look up pest or weed control at 500 g/ha for the entries below, preserving their order.
1. N#Cc1cccc(Oc2ncc(Br)cn2)c1Oc1ncc(Br)cn1 [Compound 1]
2. Clc1cnc(Oc2cccc(Br)c2Oc2ncc(Cl)cn2)nc1 [Compound 19]
3. Fc1cccc(Oc2ncc(C(F)(F)F)cn2)c1Oc1ncc(Cl)cn1 [Compound 42]

1. 90
2. 90
3. 100

====

test system: winter wheat (Triticum aestivum); assay: Test C preemergence; format: in vivo; conditions: Triticum aestivum, pre-emergence, 336 h; 31 g ai/ha, preemergence; scale 0 to 100; read-out: Plant response rating, Wheat
Please provide measured plant injury at 31 g/ha for the entries that follow.
Answers are plain numbers, in %.

{"compound": "Clc1cnc(Oc2cccc(Br)c2Oc2ncc(Cl)cn2)nc1 [Compound 19]", "plant injury at 31 g/ha [%]": 25}
{"compound": "Fc1cnc(Oc2c(Cl)cccc2Oc2ncc(Cl)cn2)nc1 [Compound 18]", "plant injury at 31 g/ha [%]": 0}
{"compound": "N#Cc1cccc(Oc2ncc(Cl)cn2)c1Oc1ncc(Br)cn1 [Compound 4]", "plant injury at 31 g/ha [%]": 0}
{"compound": "N#Cc1cccc(Oc2ncc(C(F)(F)F)cn2)c1Oc1ncc(Cl)cn1 [Compound 39]", "plant injury at 31 g/ha [%]": 0}
{"compound": "Fc1cccc(Oc2ncc(Cl)cn2)c1Oc1ncc(C(F)(F)F)cn1 [Compound 43]", "plant injury at 31 g/ha [%]": 25}

Then there is this compound:
Query (compound): N#Cc1cccc(Oc2ncc(Cl)cn2)c1Oc1ncc(C(F)(F)F)cn1 [Compound 38] ; field requested: plant injury at 31 g/ha
0

====

For each record, write down the corresponding pest or weed control at 500 g/ha.
tested on: pigweed (Amaranthus retroflexus); test: Test A postemergence; type: in vivo; conditions: Amaranthus retroflexus, post-emergence, 240 h, 500 g ai/ha, 0 to 100 scale, read-out: Plant response rating, Pigweed
One number for each entry, in %.

{"compound": "Fc1cccc(Oc2ncc(C(F)(F)F)cn2)c1Oc1ncc(Cl)cn1 [Compound 42]", "measured quantity": "pest or weed control at 500 g/ha", "data value": 100}
{"compound": "Fc1cccc(Oc2ncc(Cl)cn2)c1Oc1ncc(C(F)(F)F)cn1 [Compound 43]", "measured quantity": "pest or weed control at 500 g/ha", "data value": 100}
{"compound": "N#Cc1cccc(Oc2ncc(Br)cn2)c1Oc1ccc(Cl)cn1 [Compound 11]", "measured quantity": "pest or weed control at 500 g/ha", "data value": 100}

Batch request: pest or weed control at 500 g/ha for each of the following compounds.
1. Fc1cccc(Oc2ncc(Cl)cn2)c1Oc1ncc(Cl)cn1 [Compound 21]
2. N#Cc1cccc(Oc2ncc(Cl)cn2)c1Oc1ncc(Br)cn1 [Compound 4]

[100, 100]

// data source = patent US20170190671A1
